Recorded values, source the supplement of paper PMC6555819.

System: LXRa homodimer (NR concentration 270 nM)
assay.comment: PBM binding z-score (relative to random genomic background probes); higher = stronger binding; sequences stand for … in GC…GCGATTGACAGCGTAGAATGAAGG
Rule: PBM binding z-score of 0.09 or more gives fulfilled; anything lower gives not fulfilled.

{"residue.codes": "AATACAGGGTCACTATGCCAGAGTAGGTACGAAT", "class.name": "fulfilled"}
{"residue.codes": "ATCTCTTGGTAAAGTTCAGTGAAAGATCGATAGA", "class.name": "fulfilled"}
{"residue.codes": "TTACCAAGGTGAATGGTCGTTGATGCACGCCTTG", "class.name": "not fulfilled"}
{"residue.codes": "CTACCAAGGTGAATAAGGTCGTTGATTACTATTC", "class.name": "fulfilled"}
{"residue.codes": "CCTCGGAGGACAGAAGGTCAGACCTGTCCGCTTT", "class.name": "not fulfilled"}

----------
Tested on: PPARa:RXRa (NR concentration 270 nM, RXRa partner concentration 90 nM)
assay.comment: PBM binding z-score (relative to random genomic background probes); higher = stronger binding; sequences stand for … in GC…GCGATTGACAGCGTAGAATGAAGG
# binarize PBM binding z-score: threshold 4 inclusive, high side y, low side n

{"residue.codes": "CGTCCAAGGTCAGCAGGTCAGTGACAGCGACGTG", "class.name": "y"}
{"residue.codes": "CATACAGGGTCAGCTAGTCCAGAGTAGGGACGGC", "class.name": "y"}
{"residue.codes": "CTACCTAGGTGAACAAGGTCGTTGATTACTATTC", "class.name": "n"}
{"residue.codes": "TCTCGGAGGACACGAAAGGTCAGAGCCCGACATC", "class.name": "n"}
{"residue.codes": "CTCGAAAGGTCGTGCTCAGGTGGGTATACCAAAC", "class.name": "y"}
{"residue.codes": "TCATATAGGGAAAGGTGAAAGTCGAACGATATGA", "class.name": "n"}
{"residue.codes": "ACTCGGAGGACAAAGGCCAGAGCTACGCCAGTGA", "class.name": "n"}
{"residue.codes": "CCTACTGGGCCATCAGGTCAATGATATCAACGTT", "class.name": "n"}
{"residue.codes": "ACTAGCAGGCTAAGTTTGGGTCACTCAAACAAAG", "class.name": "n"}
{"residue.codes": "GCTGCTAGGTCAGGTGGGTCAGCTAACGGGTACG", "class.name": "n"}
{"residue.codes": "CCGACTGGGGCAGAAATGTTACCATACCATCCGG", "class.name": "n"}
{"residue.codes": "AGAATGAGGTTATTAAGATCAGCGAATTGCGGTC", "class.name": "n"}
{"residue.codes": "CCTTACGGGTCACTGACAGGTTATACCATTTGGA", "class.name": "y"}
{"residue.codes": "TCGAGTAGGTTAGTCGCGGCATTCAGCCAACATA", "class.name": "n"}
{"residue.codes": "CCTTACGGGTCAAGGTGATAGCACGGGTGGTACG", "class.name": "y"}
{"residue.codes": "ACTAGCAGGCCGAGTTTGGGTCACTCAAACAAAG", "class.name": "n"}
{"residue.codes": "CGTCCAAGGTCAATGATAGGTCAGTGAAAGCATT", "class.name": "y"}
{"residue.codes": "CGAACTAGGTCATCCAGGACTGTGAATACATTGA", "class.name": "y"}
{"residue.codes": "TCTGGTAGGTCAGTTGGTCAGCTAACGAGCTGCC", "class.name": "n"}
{"residue.codes": "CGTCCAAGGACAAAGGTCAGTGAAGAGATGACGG", "class.name": "y"}
{"residue.codes": "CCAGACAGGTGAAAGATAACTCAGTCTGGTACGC", "class.name": "n"}
{"residue.codes": "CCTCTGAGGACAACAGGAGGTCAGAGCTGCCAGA", "class.name": "n"}
{"residue.codes": "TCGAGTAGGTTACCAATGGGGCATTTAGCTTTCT", "class.name": "n"}
{"residue.codes": "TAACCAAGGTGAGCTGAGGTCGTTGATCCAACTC", "class.name": "n"}
{"residue.codes": "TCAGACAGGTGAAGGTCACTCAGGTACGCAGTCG", "class.name": "n"}
{"residue.codes": "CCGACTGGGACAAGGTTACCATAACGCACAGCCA", "class.name": "n"}
{"residue.codes": "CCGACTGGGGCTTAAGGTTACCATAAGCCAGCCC", "class.name": "n"}
{"residue.codes": "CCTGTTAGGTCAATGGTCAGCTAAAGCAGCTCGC", "class.name": "n"}
{"residue.codes": "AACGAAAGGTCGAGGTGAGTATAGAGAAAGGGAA", "class.name": "y"}
{"residue.codes": "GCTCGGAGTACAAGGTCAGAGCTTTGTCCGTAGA", "class.name": "n"}
{"residue.codes": "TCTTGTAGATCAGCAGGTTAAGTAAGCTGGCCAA", "class.name": "n"}
{"residue.codes": "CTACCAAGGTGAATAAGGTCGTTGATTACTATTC", "class.name": "n"}
{"residue.codes": "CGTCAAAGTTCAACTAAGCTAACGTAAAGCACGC", "class.name": "y"}
{"residue.codes": "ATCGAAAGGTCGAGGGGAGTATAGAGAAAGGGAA", "class.name": "y"}
{"residue.codes": "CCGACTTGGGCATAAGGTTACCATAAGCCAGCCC", "class.name": "n"}
{"residue.codes": "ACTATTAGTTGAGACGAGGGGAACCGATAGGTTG", "class.name": "n"}
{"residue.codes": "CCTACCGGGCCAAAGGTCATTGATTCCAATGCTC", "class.name": "y"}
{"residue.codes": "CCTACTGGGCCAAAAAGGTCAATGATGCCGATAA", "class.name": "y"}
{"residue.codes": "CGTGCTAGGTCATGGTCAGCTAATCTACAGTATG", "class.name": "n"}
{"residue.codes": "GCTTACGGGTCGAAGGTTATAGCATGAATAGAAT", "class.name": "y"}
{"residue.codes": "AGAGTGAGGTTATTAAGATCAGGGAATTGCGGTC", "class.name": "n"}
{"residue.codes": "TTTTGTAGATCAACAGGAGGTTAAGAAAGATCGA", "class.name": "n"}
{"residue.codes": "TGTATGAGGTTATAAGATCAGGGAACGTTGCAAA", "class.name": "n"}
{"residue.codes": "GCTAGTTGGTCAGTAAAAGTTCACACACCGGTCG", "class.name": "n"}
{"residue.codes": "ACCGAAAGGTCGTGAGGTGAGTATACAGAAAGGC", "class.name": "y"}
{"residue.codes": "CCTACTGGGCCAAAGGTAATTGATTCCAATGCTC", "class.name": "n"}
{"residue.codes": "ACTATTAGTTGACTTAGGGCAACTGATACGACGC", "class.name": "n"}
{"residue.codes": "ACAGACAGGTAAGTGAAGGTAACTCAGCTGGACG", "class.name": "n"}
{"residue.codes": "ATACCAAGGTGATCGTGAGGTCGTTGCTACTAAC", "class.name": "n"}

----------
Tested on: PPARg DBDmut:RXRa IVT, anti-PPARg (DBD mutation: PPARg1 K132A/R137A, NR concentration 270 nM, RXRa partner concentration 90 nM)
assay.comment: PBM binding z-score (relative to random genomic background probes); higher = stronger binding; sequences stand for … in GC…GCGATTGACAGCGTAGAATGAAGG
Parameter class (string): assigned from measured PBM binding z-score. Ranges: low bracket = under -0.05, middle bracket = from -0.05 up to 0.7, high bracket = 0.7 and over

{"residue.codes": "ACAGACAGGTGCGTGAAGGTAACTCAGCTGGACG", "class.name": "middle bracket"}
{"residue.codes": "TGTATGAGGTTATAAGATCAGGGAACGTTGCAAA", "class.name": "middle bracket"}
{"residue.codes": "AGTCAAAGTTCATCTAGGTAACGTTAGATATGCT", "class.name": "high bracket"}
{"residue.codes": "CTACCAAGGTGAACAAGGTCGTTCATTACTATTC", "class.name": "middle bracket"}
{"residue.codes": "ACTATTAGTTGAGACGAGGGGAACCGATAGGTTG", "class.name": "high bracket"}
{"residue.codes": "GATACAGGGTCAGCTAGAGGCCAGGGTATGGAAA", "class.name": "middle bracket"}
{"residue.codes": "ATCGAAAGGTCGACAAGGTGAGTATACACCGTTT", "class.name": "high bracket"}
{"residue.codes": "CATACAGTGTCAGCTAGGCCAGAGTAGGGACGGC", "class.name": "middle bracket"}
{"residue.codes": "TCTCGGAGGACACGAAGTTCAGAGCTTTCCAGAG", "class.name": "low bracket"}
{"residue.codes": "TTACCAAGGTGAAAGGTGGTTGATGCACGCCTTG", "class.name": "low bracket"}
{"residue.codes": "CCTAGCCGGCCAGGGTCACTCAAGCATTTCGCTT", "class.name": "low bracket"}
{"residue.codes": "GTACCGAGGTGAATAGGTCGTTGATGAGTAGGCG", "class.name": "low bracket"}
{"residue.codes": "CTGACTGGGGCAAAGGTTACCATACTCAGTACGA", "class.name": "high bracket"}
{"residue.codes": "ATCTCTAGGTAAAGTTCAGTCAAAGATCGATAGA", "class.name": "high bracket"}
{"residue.codes": "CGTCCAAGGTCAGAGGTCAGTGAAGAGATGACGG", "class.name": "middle bracket"}
{"residue.codes": "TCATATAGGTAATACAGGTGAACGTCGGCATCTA", "class.name": "high bracket"}
{"residue.codes": "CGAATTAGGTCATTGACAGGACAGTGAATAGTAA", "class.name": "high bracket"}
{"residue.codes": "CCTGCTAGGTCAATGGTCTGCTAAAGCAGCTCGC", "class.name": "low bracket"}
{"residue.codes": "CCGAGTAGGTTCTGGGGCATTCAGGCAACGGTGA", "class.name": "low bracket"}
{"residue.codes": "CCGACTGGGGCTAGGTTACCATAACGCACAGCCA", "class.name": "low bracket"}
{"residue.codes": "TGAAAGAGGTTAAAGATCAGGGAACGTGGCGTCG", "class.name": "high bracket"}
{"residue.codes": "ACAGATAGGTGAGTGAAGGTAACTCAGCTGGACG", "class.name": "middle bracket"}
{"residue.codes": "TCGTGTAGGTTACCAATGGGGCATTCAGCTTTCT", "class.name": "middle bracket"}
{"residue.codes": "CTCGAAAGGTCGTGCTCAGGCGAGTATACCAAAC", "class.name": "middle bracket"}
{"residue.codes": "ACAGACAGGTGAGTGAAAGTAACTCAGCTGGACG", "class.name": "low bracket"}
{"residue.codes": "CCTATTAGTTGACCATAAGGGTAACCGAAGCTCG", "class.name": "middle bracket"}
{"residue.codes": "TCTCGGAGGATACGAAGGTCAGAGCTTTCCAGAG", "class.name": "low bracket"}
{"residue.codes": "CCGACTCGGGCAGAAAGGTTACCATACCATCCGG", "class.name": "low bracket"}
{"residue.codes": "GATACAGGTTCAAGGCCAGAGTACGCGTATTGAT", "class.name": "low bracket"}
{"residue.codes": "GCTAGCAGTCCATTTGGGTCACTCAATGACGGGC", "class.name": "low bracket"}
{"residue.codes": "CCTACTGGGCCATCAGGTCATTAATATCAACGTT", "class.name": "middle bracket"}
{"residue.codes": "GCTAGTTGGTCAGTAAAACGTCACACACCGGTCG", "class.name": "middle bracket"}
{"residue.codes": "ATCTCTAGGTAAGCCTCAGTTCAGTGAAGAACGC", "class.name": "low bracket"}
{"residue.codes": "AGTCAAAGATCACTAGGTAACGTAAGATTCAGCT", "class.name": "middle bracket"}
{"residue.codes": "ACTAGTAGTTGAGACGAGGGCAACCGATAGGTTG", "class.name": "low bracket"}
{"residue.codes": "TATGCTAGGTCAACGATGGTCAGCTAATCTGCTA", "class.name": "high bracket"}
{"residue.codes": "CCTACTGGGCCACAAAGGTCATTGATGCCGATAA", "class.name": "middle bracket"}
{"residue.codes": "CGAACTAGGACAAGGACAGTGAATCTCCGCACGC", "class.name": "middle bracket"}
{"residue.codes": "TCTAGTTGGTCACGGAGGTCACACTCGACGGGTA", "class.name": "high bracket"}
{"residue.codes": "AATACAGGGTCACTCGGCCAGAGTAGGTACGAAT", "class.name": "high bracket"}
{"residue.codes": "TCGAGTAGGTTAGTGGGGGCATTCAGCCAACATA", "class.name": "high bracket"}
{"residue.codes": "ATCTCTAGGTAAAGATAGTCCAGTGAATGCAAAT", "class.name": "high bracket"}
{"residue.codes": "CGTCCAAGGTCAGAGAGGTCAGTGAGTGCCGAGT", "class.name": "low bracket"}
{"residue.codes": "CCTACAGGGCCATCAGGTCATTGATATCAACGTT", "class.name": "low bracket"}
{"residue.codes": "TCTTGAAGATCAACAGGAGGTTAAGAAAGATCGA", "class.name": "middle bracket"}
{"residue.codes": "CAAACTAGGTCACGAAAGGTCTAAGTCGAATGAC", "class.name": "high bracket"}
{"residue.codes": "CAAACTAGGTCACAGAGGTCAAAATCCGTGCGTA", "class.name": "high bracket"}
